Origin of measurements: patent US12459932B2

Study target: Recombinant human KIF18A (1-467 His-tagged) (Homo sapiens, UniProt Q8NI77)
Construct: Recombinant human KIF18A (1-467 His-tagged) protein; His
Sequence (Q8NI77 1-467): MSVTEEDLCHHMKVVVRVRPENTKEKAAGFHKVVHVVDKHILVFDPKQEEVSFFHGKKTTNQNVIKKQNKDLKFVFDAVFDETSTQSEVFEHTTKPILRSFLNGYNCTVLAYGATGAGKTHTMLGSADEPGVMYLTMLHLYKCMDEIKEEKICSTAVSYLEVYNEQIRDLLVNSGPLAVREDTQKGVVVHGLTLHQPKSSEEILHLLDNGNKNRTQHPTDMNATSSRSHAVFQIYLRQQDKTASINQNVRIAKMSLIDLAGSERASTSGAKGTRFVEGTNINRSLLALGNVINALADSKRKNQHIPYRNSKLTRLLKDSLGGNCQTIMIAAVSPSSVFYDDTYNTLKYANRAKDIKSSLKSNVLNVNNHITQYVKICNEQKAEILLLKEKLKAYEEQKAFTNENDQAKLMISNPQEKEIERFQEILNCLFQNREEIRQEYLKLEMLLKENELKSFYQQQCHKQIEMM
Sequence (P02550 whole entry partner): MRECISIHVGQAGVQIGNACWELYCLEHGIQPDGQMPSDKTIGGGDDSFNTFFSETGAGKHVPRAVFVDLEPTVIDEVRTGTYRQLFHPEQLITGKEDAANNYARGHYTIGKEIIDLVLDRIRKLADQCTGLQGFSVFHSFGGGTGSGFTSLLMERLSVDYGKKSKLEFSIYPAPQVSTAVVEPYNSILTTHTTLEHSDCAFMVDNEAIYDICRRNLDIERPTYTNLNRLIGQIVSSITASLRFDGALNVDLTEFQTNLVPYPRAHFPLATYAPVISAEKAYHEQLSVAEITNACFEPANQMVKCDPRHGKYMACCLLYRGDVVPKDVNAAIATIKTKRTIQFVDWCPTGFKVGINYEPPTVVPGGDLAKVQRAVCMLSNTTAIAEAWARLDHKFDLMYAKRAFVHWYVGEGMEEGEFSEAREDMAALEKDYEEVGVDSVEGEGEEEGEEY
Sequence (P02554 whole entry partner): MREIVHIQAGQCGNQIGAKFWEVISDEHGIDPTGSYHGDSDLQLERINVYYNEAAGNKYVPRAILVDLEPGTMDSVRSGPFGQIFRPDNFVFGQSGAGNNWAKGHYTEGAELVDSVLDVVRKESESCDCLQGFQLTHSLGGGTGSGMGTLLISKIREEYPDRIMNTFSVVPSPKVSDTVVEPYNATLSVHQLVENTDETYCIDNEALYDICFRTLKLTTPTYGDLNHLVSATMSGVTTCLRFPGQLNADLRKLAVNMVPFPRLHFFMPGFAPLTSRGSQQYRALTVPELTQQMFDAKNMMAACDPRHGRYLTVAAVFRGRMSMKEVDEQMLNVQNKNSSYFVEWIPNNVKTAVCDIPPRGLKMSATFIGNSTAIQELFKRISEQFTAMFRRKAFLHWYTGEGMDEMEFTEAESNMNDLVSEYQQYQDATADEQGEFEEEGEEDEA
Protocol summary: KIF18A Enzyme Assay: microtubule-stimulated ATPase activity (ADP-Glo)
Assay setup: 30 nM KIF18A, 30 μg/mL pig microtubules, ATP 75 μM (Km), ADP-Glo luminescence
Metric name: IC50 (nM)

[1] Cc1cc(NC(=O)c2ccc(NS(=O)(=O)CCO)cc2N2CCC3(CC2)CC3)nc(OCC(O)C(F)(F)F)c1 (centres unmarked) [Example 17-1]
[2] CC1(S(=O)(=O)Nc2ccc(C(=O)Nc3cccc(N4CCC(F)(F)C4)n3)c(N3CCC4(CC3)CC4)c2)CC1 [Example 3-5]
Challenge: Select the item with the higher value of IC50 from the options 1 and 2 listed. Indicate your choice by writing its label.
Response given: 1

[a] C[C@@H]1CN(c2cccc(NC(=O)c3ccc(NS(=O)(=O)CF)cc3N3CCC4(CC3)CC4)n2)CCO1 [Example 7-38]
[b] Cc1cc(NC(=O)c2ccc(NS(=O)(=O)CCO)cc2N2CCC3(CC2)CC3)nc(OCCC(F)(F)F)c1 [Example 17]
[c] O=C(Nc1cncc(N2CCC(F)(F)CC2)n1)c1ccc(NS(=O)(=O)CCO)cc1N1CCC2(CC1)CC2 [Example 7-44]
[d] Cc1cc(NC(=O)c2ccc(S(=N)(=O)C3CC3)cc2N2CCC3(CC2)CC3)nc(N2CC(F)(F)C2)c1 (single isomer, unassigned) [Example 28-1]
[e] CS(=O)(=O)c1ccc(C(=O)Nc2cccc(N3CCOCC3)n2)c(N2CCC3(CC2)CC3)c1 [Example 4-12]
Challenge: Please list the entries, largest IC50 first. Reply: labels, ordered per the request.
Response given: e, d, a, b, c
